# Experimental Protocol: physchem
# Assay type: physicochemical
# Study Conditions: Solubility soluble form
solubility for assorted molecules
Measurement Type: solubility (mg/mL)

# Molecule, Measurement Type, Sign, Reported Result
rows = [
    ("CO[C@H]1/C=C/O[C@@]2(C)Oc3c(C)c(O)c4c(O)c(c(C=NNC(=O)c5ccncc5)c(O)c4c3C2=O)NC(=O)/C(C)=C\\C=C\\[C@H](C)[C@H](O)[C@@H](C)[C@@H](O)[C@@H](C)[C@H](OC(C)=O)[C@@H]1C", "solubility", "=", 168),
    ("CO[C@H]1/C=C/O[C@@]2(C)Oc3c(C)c(O)c4c(O)c(c(C=NNc5ccc(-c6ccc(C)cc6)nn5)c(O)c4c3C2=O)NC(=O)/C(C)=C\\C=C\\[C@H](C)[C@H](O)[C@@H](C)[C@@H](O)[C@@H](C)[C@H](OC(C)=O)[C@@H]1C", "solubility", "=", 0.54),
    ("CCON=Cc1c2c(O)c3c(O)c(C)c4c(c3c1O)C(=O)[C@@](C)(O/C=C/[C@H](OC)[C@@H](C)[C@@H](OC(C)=O)[C@H](C)[C@H](O)[C@H](C)[C@@H](O)[C@@H](C)/C=C/C=C(/C)C(=O)N2)O4 [Example 9, 3-(ethyloximinomethyl)rifamycin SV]", "solubility", ">", 100),
    ("CO[C@H]1/C=C/O[C@@]2(C)Oc3c(C)c(O)c4c(O)c(c(C=NOCCBr)c(O)c4c3C2=O)NC(=O)/C(C)=C\\C=C\\[C@H](C)[C@H](O)[C@@H](C)[C@@H](O)[C@@H](C)[C@H](OC(C)=O)[C@@H]1C", "solubility", ">", 100),
]

----------
Measured solubility values are reported for all entries that follow.
# Experimental Protocol: physchem
# Type: physicochemical
# Study Conditions: Solubility soluble form
Measurement Type: solubility (mg/mL)

# Compound, Reported Result
data = [
    ("CO[C@H]1/C=C/O[C@@]2(C)Oc3c(C)c(O)c4c(O)c(c(C=NNc5ccc(-c6ccc(C)c(C)c6)nn5)c(O)c4c3C2=O)NC(=O)/C(C)=C\\C=C\\[C@H](C)[C@H](O)[C@@H](C)[C@@H](O)[C@@H](C)[C@H](OC(C)=O)[C@@H]1C [Example 12]", 0.54),
    ("CO[C@H]1/C=C/O[C@@]2(C)Oc3c(C)c(O)c4c(O)c(c(C=NNC(=O)Cc5ccccc5)c(O)c4c3C2=O)NC(=O)/C(C)=C\\C=C\\[C@H](C)[C@H](O)[C@@H](C)[C@@H](O)[C@@H](C)[C@H](OC(C)=O)[C@@H]1C [Example 14]", 71),
    ("CO[C@H]1/C=C/O[C@@]2(C)Oc3c(C)c(O)c4c(O)c(c(C=NNC(=O)COc5ccccc5)c(O)c4c3C2=O)NC(=O)/C(C)=C\\C=C\\[C@H](C)[C@H](O)[C@@H](C)[C@@H](O)[C@@H](C)[C@H](OC(C)=O)[C@@H]1C [Example 15]", 128),
]

----------
# Experimental Protocol: physchem
# Format: physicochemical
# Study Conditions: Solubility as such

# Compound, Unit Spec, solubility
measured = [
    ("CO[C@H]1/C=C/O[C@@]2(C)Oc3c(C)c(O)c4c(O)c(c(C=NNC(=O)Cc5ccccc5)c(O)c4c3C2=O)NC(=O)/C(C)=C\\C=C\\[C@H](C)[C@H](O)[C@@H](C)[C@@H](O)[C@@H](C)[C@H](OC(C)=O)[C@@H]1C [reference compound]", "mg/mL", 4.8),
    ("CO[C@H]1/C=C/O[C@@]2(C)Oc3c(C)c(O)c4c(O)c(c(C=NNc5ccc(-c6ccc(C)cc6)nn5)c(O)c4c3C2=O)NC(=O)/C(C)=C\\C=C\\[C@H](C)[C@H](O)[C@@H](C)[C@@H](O)[C@@H](C)[C@H](OC(C)=O)[C@@H]1C [reference compound]", "mg/mL", 0.27),
    ("CO[C@H]1/C=C/O[C@@]2(C)Oc3c(C)c(O)c4c(O)c(c(C=NNC(=O)COc5ccccc5)c(O)c4c3C2=O)NC(=O)/C(C)=C\\C=C\\[C@H](C)[C@H](O)[C@@H](C)[C@@H](O)[C@@H](C)[C@H](OC(C)=O)[C@@H]1C [reference compound]", "mg/mL", 2.75),
    ("CO[C@H]1/C=C/O[C@@]2(C)Oc3c(C)c(O)c4c(O)c(c(C=NO)c(O)c4c3C2=O)NC(=O)/C(C)=C\\C=C\\[C@H](C)[C@H](O)[C@@H](C)[C@@H](O)[C@@H](C)[C@H](OC(C)=O)[C@@H]1C [3-formylrifamycin SV oxime, reference compound]", "mg/mL", 5.5),
]
